# ASSAY_TARGET: Sterol O-acyltransferase 1 (Rattus norvegicus, UniProt O70536)
# Sequence (O70536 whole entry): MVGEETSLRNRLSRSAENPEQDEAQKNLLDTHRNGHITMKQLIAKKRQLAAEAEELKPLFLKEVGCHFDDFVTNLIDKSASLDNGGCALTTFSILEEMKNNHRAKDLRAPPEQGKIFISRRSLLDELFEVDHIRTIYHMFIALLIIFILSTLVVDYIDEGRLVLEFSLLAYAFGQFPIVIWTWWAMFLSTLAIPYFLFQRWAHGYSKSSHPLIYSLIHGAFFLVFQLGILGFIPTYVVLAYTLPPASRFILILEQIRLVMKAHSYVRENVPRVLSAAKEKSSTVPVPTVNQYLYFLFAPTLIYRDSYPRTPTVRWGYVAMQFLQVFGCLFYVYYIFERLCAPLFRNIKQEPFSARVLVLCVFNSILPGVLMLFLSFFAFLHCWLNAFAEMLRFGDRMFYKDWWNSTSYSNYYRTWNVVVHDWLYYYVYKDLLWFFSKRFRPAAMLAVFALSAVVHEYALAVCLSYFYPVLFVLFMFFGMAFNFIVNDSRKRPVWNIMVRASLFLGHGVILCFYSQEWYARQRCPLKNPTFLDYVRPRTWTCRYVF

COMPOUND	IC50 / µM
CC(C)=CCC[C@@](C)(O)[C@H]1CC[C@]2(C)C1[C@H](O)C[C@@H]1[C@@]3(C)CC[C@H](O)C(C)(C)[C@@H]3[C@@H](O)C[C@]12C (stereo partly drawn)	6
CC(C)=CCC[C@](C)(O)[C@H]1CC[C@]2(C)[C@@H]1[C@H](O)C[C@@H]1[C@@]3(C)CC[C@H](O)C(C)(C)[C@@H]3CC[C@]12C	30
CC1(C)CCC[C@](C)(C2CC[C@]3(C)C2[C@H](O)CC2[C@@]4(C)CC[C@H](O)C(C)(C)C4CC[C@]23C)O1 (stereo partly drawn)	55
CC1(C)CCC[C@](C)(C2CC[C@]3(C)C2[C@H](O)CC2[C@@]4(C)CC[C@H](O)C(C)(C)C4[C@@H](O)C[C@]23C)O1 (stereo partly drawn)	12
CC1(C)CCC[C@@](C)(C2CC[C@]3(C)C2[C@H](O)CC2[C@@]4(C)CC[C@H](O)C(C)(C)C4CC[C@]23C)O1 (stereo partly drawn)	25
CC(C)=CCC[C@@](C)(O)[C@H]1CC[C@]2(C)[C@@H]1[C@H](O)C[C@@H]1[C@@]3(C)CC[C@H](O)C(C)(C)[C@@H]3CC[C@]12C	10
CC(C)=CCC[C@](C)(O)C1CC[C@]2(C)C1[C@H](O)CC1[C@@]3(C)CC[C@H](O)C(C)(C)C3[C@@H](O)C[C@]12C (stereo partly drawn)	24
CC1(C)CCC[C@@](C)(C2CC[C@]3(C)C2[C@H](O)CC2[C@@]4(C)CC[C@H](O)C(C)(C)C4[C@@H](O)C[C@]23C)O1 (stereo partly drawn)	28
